B1: CPEB3 Ribozyme (parent)
chain: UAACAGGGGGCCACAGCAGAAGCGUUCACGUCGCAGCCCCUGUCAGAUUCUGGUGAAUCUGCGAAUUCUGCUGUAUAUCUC

- Variants of: B1
- method: self-cleavage, relative activity (ratio to wild type); higher = more cleavage; in vitro, sequencing
Label 1 (yes) when self-cleavage is at or above 0.5; anything below gets 0 (no).

Does U25A A56G have a reported self-cleavage of at least 0.5?
0 (no)
